ASSAY_SYSTEM: HLA-A*31:01
MEASUREMENT_PROTOCOL: IEDB peptide-MHC binding, purified MHC/competitive/radioactivity; filed as Kd, often an IC50 or EC50 that approximates it; bounds were set here for any values at or beyond the usual limits of such assays
MEASUREMENT_PARAMETERS: source organism: Dengue virus 1 Brazil/97-11/1997
pKd: −log10 of the molar value.
MEASUREMENT_TYPE: pKd

INSERT INTO results (residue_codes, experimental_result) VALUES
  ('MFAVGLLFRR', 4.72);

* * *

ASSAY_SYSTEM: HLA-B*51:01
MEASUREMENT_PROTOCOL: IEDB peptide-MHC binding, purified MHC/direct/fluorescence; filed as Kd, often an IC50 or EC50 that approximates it; bounds were set here for any values at or beyond the usual limits of such assays
MEASUREMENT_PARAMETERS: source organism: Toxoplasma gondii RH
MEASUREMENT_TYPE: Kd

INSERT INTO results (residue_codes, experimental_result) VALUES
  ('THADAHTQL', '≥ 20 µM');

Data origin, for the record: the Immune Epitope Database (IEDB)
